assay: Quantitative High-Throughput drug screen in 47 multiple myeloma cell lines against the NCATS MIPE library collection: XG1_PLB cell viability assay (AID 1919866); settings: CellTiter-Glo ATP, 48 h; series mostly up to 45.8 µM; also: nearly all actives have a fitted effect of over 35% in size
Results filed as inconclusive are left out. Calls of active or inactive are those of the source. Calls follow the shape of the dose curve; as a rule, active = well fitted cell-killing curve with a large enough effect; inconclusive = small, poorly fitted or top-dose-only effect, or effect the other way; inactive = no such curve, though single readings can be large or run the other way.
One label from this list, please: active, inactive

For orientation, consider the following solved cases.
* C[C@@H]1O[C@@H](O[C@H]2C[C@@H](O)[C@]3(CO)[C@H]4[C@H](O)C[C@]5(C)[C@@H](C6=CC(=O)OC6)CC[C@]5(O)[C@@H]4CC[C@]3(O)C2)[C@H](O)[C@H](O)[C@H]1O | active
* N[C@@H](Cc1ccc(N(CCCl)CCCl)cc1)C(=O)O | active
* CN1CCN(C(=O)O[C@H]2c3nccnc3C(=O)N2c2ccc(Cl)cn2)CC1 | inactive
* COc1ccc(C(=O)c2c(C)n(CCN3CCOCC3)c3ccccc23)cc1 | inactive
* COC[C@H]1OC(=O)c2coc3c2[C@@]1(C)C1=C(C3=O)C2CCC(=O)[C@@]2(C)C[C@H]1OC(C)=O (stereo partly specified) | active

// next entry
Ask: Status in this test for Fc1ccc(C(OCCN2CCN(CCCc3ccccc3)CC2)c2ccc(F)cc2)cc1 ?
Reply: active

Each recorded value in this set is attributed to PubChem BioAssay (NCATS).
